target or system: Cathepsin B (Rattus norvegicus, UniProt P00787)
Sequence (P00787 80-339): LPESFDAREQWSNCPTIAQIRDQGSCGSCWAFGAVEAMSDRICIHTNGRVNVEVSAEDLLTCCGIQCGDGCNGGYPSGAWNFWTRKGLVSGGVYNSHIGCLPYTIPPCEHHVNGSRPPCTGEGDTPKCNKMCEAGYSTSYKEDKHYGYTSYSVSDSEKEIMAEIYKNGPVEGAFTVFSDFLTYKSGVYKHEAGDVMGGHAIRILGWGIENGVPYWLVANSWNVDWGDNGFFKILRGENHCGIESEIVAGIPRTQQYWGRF
pIC50: −log10 of the molar value.
List of pIC50 values.

compound: O=C(N[C@@H](Cc1ccccc1)C(=O)N[C@@H]1C(=O)N2CCS[C@@H]12)OCc1ccccc1 [Example 1]
pIC50: < 4.30

Exercise: Enter reported pIC50 observed with Cathepsin B (Rattus norvegicus, UniProt P00787) for O=C(CCc1ccccc1)N[C@@H](CC1CCCCC1)C(=O)N[C@@H]1C(=O)N2CCS(=O)(=O)[C@@H]12 [Example 5]
Solution: 6.37

Exercise: Now try O=C(N[C@H](Cc1ccccc1)C(=O)N[C@@H]1C(=O)N2CCS(=O)(=O)[C@@H]12)OCc1ccccc1 [Example 20] .
Solution: < 4.30

Exercise: Try this compound next: CC1(C)[C@H](C(=O)O)N2C(=O)[C@@H](NC(=O)[C@H](Cc3ccccc3)NC(=O)CCc3ccccc3)[C@H]2S1(=O)=O [Example 19]
Solution: < 4.30

Exercise: O=C(CCc1ccccc1)N[C@@H](Cc1ccc2ccccc2c1)C(=O)N[C@@H]1C(=O)N2CCS[C@@H]12 [Example 6] ?
Solution: 4.98

Exercise: Could you do the same for O=C(CCc1ccccc1)N[C@@H](CC1CCCCC1)C(=O)N[C@@H]1C(=O)N2CCS[C@@H]12 [Example 4] , please?
Solution: < 4.30
